Where do these numbers come from? They come from patent US20250236673A1.

test.target: T1, recombinant human CEACAM5 (human, UniProt P06731 35-685, limits assumed)
T1 construct: Immobilised by amine coupling on a CM5 chip
T1 sequence (looked up): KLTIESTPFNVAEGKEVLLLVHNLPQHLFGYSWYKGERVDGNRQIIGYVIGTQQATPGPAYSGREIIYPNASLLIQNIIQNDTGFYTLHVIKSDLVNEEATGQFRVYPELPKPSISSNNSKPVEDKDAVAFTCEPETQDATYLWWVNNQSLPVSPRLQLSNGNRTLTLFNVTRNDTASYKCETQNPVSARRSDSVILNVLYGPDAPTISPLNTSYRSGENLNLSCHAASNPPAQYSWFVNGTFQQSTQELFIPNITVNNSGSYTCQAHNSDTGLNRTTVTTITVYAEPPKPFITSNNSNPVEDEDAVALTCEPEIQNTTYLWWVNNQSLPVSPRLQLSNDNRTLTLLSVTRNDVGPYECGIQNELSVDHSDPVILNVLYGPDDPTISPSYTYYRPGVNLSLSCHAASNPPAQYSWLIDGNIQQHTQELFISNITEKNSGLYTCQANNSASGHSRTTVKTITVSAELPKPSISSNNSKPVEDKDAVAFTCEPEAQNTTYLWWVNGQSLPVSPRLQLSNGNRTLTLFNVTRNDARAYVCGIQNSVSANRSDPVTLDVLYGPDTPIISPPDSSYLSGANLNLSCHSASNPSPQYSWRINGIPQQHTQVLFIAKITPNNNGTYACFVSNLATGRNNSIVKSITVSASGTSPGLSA
assay.comment: SPR on CEACAM5 (Example 2; method not restated, as Example 1)
pKd: −log10 of the molar value.
assay.endpoint: pKd

>>> reported("T039400052 (VHH, Single lysine at 73; also called HIS6-ENLYFQS-5GS-A0315007E07K43R, K64R, N73K, K75R) VHH: EVQLVESGGGVVQPGGSLRLSCAASGLTFSTYTMGWFRQAPGREREFVAAIIWSGSNTYYADSVRGRFTISRDKARNTVYLQMNSLRPEDTALYYCAAQHFGPIGLTTRGYHYWGQGTLVTVSS")
8.84
>>> reported("T039400053 (VHH, Single lysine at 43; 24 used; also called HIS6-ENLYFQS-5GS-A0315007E07(K64R, K75R,)) VHH: EVQLVESGGGVVQPGGSLRLSCAASGLTFSTYTMGWFRQAPGKEREFVAAIIWSGSNTYYADSVRGRFTISRDNARNTVYLQMNSLRPEDTALYYCAAQHFGPIGLTTRGYHYWGQGTLVTVSS")
9.03
>>> reported("T039400047 (VHH, Single lysine at 64; also called HIS6-ENLYFQS-5GS-A0315007E07(K43R, K75R)) VHH: EVQLVESGGGVVQPGGSLRLSCAASGLTFSTYTMGWFRQAPGREREFVAAIIWSGSNTYYADSVKGRFTISRDNARNTVYLQMNSLRPEDTALYYCAAQHFGPIGLTTRGYHYWGQGTLVTVSS")
9.04
>>> reported("T039400050 (VHH, No lysine; also called HIS6-ENLYFQS-5GS-A0315007E07(K43R, K64R, K75R)) VHH: EVQLVESGGGVVQPGGSLRLSCAASGLTFSTYTMGWFRQAPGREREFVAAIIWSGSNTYYADSVRGRFTISRDNARNTVYLQMNSLRPEDTALYYCAAQHFGPIGLTTRGYHYWGQGTLVTVSS")
9.02
>>> reported("T039400054 (VHH, Single lysine at the C-terminus; also called HIS6-ENLYFQS-5GS-A0315007E07(K43R, K64R, K75R,)-K) VHH: EVQLVESGGGVVQPGGSLRLSCAASGLTFSTYTMGWFRQAPGREREFVAAIIWSGSNTYYADSVRGRFTISRDNARNTVYLQMNSLRPEDTALYYCAAQHFGPIGLTTRGYHYWGQGTLVTVSS")
9.00
>>> reported("T039400048 (VHH, Single lysine at 45; also called HIS6-ENLYFQS-5GS-A0315007E07(K43R, R45K, K64R, K75R)) VHH: EVQLVESGGGVVQPGGSLRLSCAASGLTFSTYTMGWFRQAPGREKEFVAAIIWSGSNTYYADSVRGRFTISRDNARNTVYLQMNSLRPEDTALYYCAAQHFGPIGLTTRGYHYWGQGTLVTVSS")
9.06
>>> reported("T039400049 (VHH, also called HIS6-ENLYFQS-5GS-A0315007E07(K43R, K64R, K75R, Q105K)) VHH: EVQLVESGGGVVQPGGSLRLSCAASGLTFSTYTMGWFRQAPGREREFVAAIIWSGSNTYYADSVRGRFTISRDNARNTVYLQMNSLRPEDTALYYCAAQHFGPIGLTTRGYHYWGKGTLVTVSS")
9.04
